target: rat P2X2 tandem trimer D315A–D315A–D315A (Rattus norvegicus, UniProt P49653, D315A); type: cell-based; details: EC50 (2), second phase, at −160 mV
property-measured: pEC50
To interpret pEC50, take it as minus log10 of a concentration measured in moles per litre.

Prompt line: Can you share its pEC50? I mean this compound: Nc1ncnc2c1ncn2[C@@H]1O[C@H](COP(=O)(O)OP(=O)(O)OP(=O)(O)O)[C@@H](O)[C@H]1O [ATP, adenosine triphosphate]
Response line: 3.89

----------
Molecular target: rat P2X2 D315A (Rattus norvegicus, UniProt P49653, D315A)
Sequence (P49653 1-472 D315A): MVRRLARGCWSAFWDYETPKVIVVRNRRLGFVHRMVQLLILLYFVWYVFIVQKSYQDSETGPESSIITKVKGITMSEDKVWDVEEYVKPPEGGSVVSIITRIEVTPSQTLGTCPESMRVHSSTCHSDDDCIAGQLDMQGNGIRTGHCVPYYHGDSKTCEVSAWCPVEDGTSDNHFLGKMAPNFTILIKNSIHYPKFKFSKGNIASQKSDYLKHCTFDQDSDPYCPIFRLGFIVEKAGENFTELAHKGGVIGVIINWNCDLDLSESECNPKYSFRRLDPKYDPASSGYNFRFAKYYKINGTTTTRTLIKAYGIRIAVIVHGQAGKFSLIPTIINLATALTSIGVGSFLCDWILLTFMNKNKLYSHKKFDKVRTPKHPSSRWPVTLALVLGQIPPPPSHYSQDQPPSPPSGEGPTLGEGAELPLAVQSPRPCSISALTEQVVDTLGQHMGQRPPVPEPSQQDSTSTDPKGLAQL
Experiment: ATP dose–response, two-electrode voltage clamp in Xenopus oocytes, D315A
Type: cell-based
Conditions: EC50 (2), second phase of biphasic dose–response, at −160 mV
property-measured: EC50 (µM)
Write the number in µM without appending the unit.

Prompt line: Can you share its EC50? I mean this compound: Nc1ncnc2c1ncn2[C@@H]1O[C@H](COP(=O)(O)OP(=O)(O)OP(=O)(O)O)[C@@H](O)[C@H]1O [ATP, adenosine triphosphate]
Response line: 89.1

----------
molecular target: rat P2X2 tandem trimer WT–T339S–T339S (Rattus norvegicus, UniProt P49653, T339S)
property-measured: EC50 (µM)
Write the number in µM without appending the unit.

Prompt line: Can you share its EC50? I mean this molecule: Nc1ncnc2c1ncn2[C@@H]1O[C@H](COP(=O)(O)OP(=O)(O)OP(=O)(O)O)[C@@H](O)[C@H]1O [ATP, adenosine triphosphate]
Response line: 6

----------
Molecular target: rat P2X2 tandem trimer D315A–D315A–D315A (Rattus norvegicus, UniProt P49653, D315A)
Sequence (P49653 1-472 D315A) 1: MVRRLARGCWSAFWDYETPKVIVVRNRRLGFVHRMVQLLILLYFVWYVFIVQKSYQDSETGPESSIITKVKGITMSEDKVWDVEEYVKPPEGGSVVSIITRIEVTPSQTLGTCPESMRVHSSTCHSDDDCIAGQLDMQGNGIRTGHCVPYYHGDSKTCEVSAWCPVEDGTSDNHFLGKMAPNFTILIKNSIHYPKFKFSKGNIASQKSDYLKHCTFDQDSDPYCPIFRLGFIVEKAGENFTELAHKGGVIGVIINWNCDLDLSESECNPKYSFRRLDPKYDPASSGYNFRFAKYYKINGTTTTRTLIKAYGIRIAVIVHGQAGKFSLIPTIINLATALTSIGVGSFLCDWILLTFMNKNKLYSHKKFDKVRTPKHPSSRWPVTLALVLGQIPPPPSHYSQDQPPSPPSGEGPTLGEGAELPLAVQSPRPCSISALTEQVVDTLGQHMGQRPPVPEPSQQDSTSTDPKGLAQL
Sequence (P49653 1-472 D315A) 2: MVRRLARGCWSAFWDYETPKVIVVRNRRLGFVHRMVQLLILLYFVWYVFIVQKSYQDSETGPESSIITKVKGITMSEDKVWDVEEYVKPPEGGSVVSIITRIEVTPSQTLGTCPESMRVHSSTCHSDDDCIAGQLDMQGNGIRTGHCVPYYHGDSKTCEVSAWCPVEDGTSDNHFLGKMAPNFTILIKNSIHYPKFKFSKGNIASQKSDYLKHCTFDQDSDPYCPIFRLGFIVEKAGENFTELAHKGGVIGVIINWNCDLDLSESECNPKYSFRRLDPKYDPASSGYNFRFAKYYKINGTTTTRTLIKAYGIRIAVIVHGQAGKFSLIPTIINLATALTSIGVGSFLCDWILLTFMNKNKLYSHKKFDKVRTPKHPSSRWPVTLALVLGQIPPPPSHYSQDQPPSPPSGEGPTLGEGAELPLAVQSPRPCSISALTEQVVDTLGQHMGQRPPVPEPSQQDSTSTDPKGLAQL
Sequence (P49653 1-472 D315A) 3: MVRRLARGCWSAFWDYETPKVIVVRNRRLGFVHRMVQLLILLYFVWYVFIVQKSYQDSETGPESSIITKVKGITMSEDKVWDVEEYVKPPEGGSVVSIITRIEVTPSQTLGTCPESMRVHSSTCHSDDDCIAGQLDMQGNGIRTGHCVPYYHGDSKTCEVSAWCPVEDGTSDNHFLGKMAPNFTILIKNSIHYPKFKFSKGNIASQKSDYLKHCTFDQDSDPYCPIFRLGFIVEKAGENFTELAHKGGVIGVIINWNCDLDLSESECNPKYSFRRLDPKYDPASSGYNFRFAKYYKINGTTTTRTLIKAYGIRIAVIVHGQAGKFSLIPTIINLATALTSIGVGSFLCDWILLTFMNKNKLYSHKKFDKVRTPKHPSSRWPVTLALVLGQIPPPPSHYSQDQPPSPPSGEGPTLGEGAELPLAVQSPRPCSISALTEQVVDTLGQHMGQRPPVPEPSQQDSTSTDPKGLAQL
Format: cell-based
Settings: EC50 (1), first phase, at −160 mV
property-measured: pEC50
To interpret pEC50, take it as minus log10 of a concentration measured in moles per litre.

Prompt line: Can you share its pEC50? I mean this compound: Nc1ncnc2c1ncn2[C@@H]1O[C@H](COP(=O)(O)OP(=O)(O)OP(=O)(O)O)[C@@H](O)[C@H]1O [ATP, adenosine triphosphate]
Response line: 5.82
